TARGET OR SYSTEM: feline FcRn complex (FcRn-α subunit and β-microglobulin), biotin labeled (feline)
MEASUREMENT DESCRIPTION: SPR, pH 6
PROPERTY NAME: pKd
Convention used: pKd is expressed as -log10 of the molar concentration.

Briefly, pKd measured for feline IgG1a D249S (antibody, part only; not given: Variable domains, not shown: another chain or arm of the molecule) constant: ASTTAPSVFPLAPSCGTTSGATVALACLVLGYFPEPVTVSWNSGALTSGVHTFPAVLQASGLYSLSSMVTVPSSRWLSDTFTCNVAHPPSNTKVDKTVRKTDHPPGPKPCDCPKCPPPEMLGGPSIFIFPPKPKSTLSISRTPEVTCLVVDLGPDDSDVQITWFVDNTQVYTAKTSPREEQFNSTYRVVSVLPILHQDWLKGKEFKCKVNSKSLPSPIERTISKAKGQPHEPQVYVLPPAQEELSRNKVSVTCLIKSFHPPDIAVEWEITGQPEPENNYRTTPPQLDSDGTYFVYSKLSVDRSHWQRGNTYTCSVSHEALHSHHTQKSLTQSPGK : 8.28
